- experiment description: Stability of compound in PBS at pH 7.4 assessed as parent compound remaining at 10 uM measured immediately in presence of GSH by RP-HPLC analysis
- Assay type: physicochemical
- assay setup: PBS with GSH, read-out: Stability
assay endpoint: remaining at 0 h, 10 µM (%)
Could you give me the number in %? Just the number is fine.

Return reported remaining at 0 h, 10 µM; argument: CC(=O)N[C@@H](CCCNC(=N)N)C(=O)N[C@@H](C)C(=O)N[C@@H]1CSSC(C)(C)[C@@H](C(=O)O)NC(=O)[C@H](Cc2cnc[nH]2)NC(=O)[C@H](Cc2ccc3ccccc3c2)NC(=O)[C@H](CCCNC(=N)N)NC1=O
100

Another molecule to look at: CC(=O)N[C@@H](CCCNC(=N)N)C(=O)N[C@@H](C)C(=O)N[C@H]1CNC(=O)CC[C@@H](C(=O)O)NC(=O)[C@H](Cc2c[nH]cn2)NC(=O)[C@H](Cc2ccc3ccccc3c2)NC(=O)[C@H](CCCNC(=N)N)NC1=O
100
